Target: T1, HLA-B*08:01 (human)
T1 construct: MHC monomer first loaded with a UV-sensitive peptide that is cleaved by UV light and exchanged for the test peptide
Assay: UV peptide exchange ELISA

| BINDER | peptide exchange yield |
| --- | --- |
| DIVPPFSAF [DIVPPFSAF (SEQ ID NO: 161)] | 20 to 50% |
| HRILRLPAL [HRILRLPAL (SEQ ID NO: 129)] | 50 to 75% |
| SEPVMRVTL [SEPVMRVTL (SEQ ID NO: 239)] | 20 to 50% |
| LLKKIEHA [LLKKIEHA (SEQ ID NO: 15)] | 20 to 50% |
| FDFRGKTKVF [FDFRGKTKVF (SEQ ID NO: 59)] | 20 to 50% |
| IVKIKVQEL [IVKIKVQEL (SEQ ID NO: 36)] | 20 to 50% |
| LPPPQPLSL [LPPPQPLSL (SEQ ID NO: 208)] | 20 to 50% |
